- Measured Target: RNA-editing ligase 1, mitochondrial (Trypanosoma brucei brucei) (UniProt P86926)
- Sequence (P86926 whole entry, looked up): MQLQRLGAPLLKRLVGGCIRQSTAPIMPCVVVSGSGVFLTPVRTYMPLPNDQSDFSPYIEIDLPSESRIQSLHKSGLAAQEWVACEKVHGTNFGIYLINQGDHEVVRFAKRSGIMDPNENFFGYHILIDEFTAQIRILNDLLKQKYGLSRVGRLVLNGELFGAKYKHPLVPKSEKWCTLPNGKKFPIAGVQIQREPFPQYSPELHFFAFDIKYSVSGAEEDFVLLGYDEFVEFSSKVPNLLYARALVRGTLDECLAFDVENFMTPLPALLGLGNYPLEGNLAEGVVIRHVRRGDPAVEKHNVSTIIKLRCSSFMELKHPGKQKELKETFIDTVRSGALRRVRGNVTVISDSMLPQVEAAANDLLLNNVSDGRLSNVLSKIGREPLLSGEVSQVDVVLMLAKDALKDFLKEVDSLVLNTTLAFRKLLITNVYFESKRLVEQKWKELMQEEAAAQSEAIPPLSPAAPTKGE
- Assay Method Text: TbREL1 RNA ligase inhibitors, primary screen, biochemical, FRET fluorescence (AID 1117264);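 note: 0% = plate median of test wells and 100% = NSC42067 control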
- Condition Description: TbREL1 RNA ligation, at 9.66 µM, active compounds read high
In all, about 89,000 compounds went through this assay and about 440 (0.49%) were called active. The sample as a whole holds a higher share of actives than the screen did.
Experimental Readout: inhibition (%)
Write the number in % without appending the unit.

Please give the documented inhibition of Cc1cccc(NC(=O)CN2CCN(CC(=O)NCC3(N4CCCCC4)CCCCC3)CC2)c1C
-4.34

Please give the documented inhibition of CC(C#N)OC(=O)c1cccnc1SCC(=O)Nc1ccc2c(c1)OCO2 (stereo not given)
-2.63

Please give the documented inhibition of Cc1nc(C)c(C(=O)Nc2cccc(C)c2C)o1
-2.18

Please give the documented inhibition of Cc1ccc(NC(=O)Cn2cccc2C2=NC(c3ccccc3)CO2)c(C)c1 (stereo not given)
-0.96

Please give the documented inhibition of COc1ccccc1NC(=S)N1CCC(NC(=O)C23CC4CC(CC(C4)C2)C3)CC1
-2.86

====

inhibition listing for selected molecules.
- Measured Target: RNA-editing ligase 1, mitochondrial (Trypanosoma brucei brucei)
- Assay Method Text: TbREL1 RNA ligase inhibitors, primary screen, biochemical, FRET fluorescence (AID 1117264);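 note: 0% = plate median of test wells and 100% = NSC42067 control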
- Condition Description: TbREL1 RNA ligation, at 9.66 µM, active compounds read high
About 440 (0.49%) of roughly 89,000 compounds were called active. Many of the other results were omitted from the sample, so actives are more common in it than they were.
Write the number in % without appending the unit.

These solved cases illustrate the format of a correct answer.
O=[N+]([O-])c1ccc2c(c1)C(O)n1nc(-c3ccccc3)nc1S2 (stereo not given) | 5.85
O=C(CSc1ccc([N+](=O)[O-])cn1)Nc1ccc(N2CCOCC2)c(Cl)c1 | 4.47
COc1cccc(CNC(=O)CNS(=O)(=O)c2ccc3nc(C)sc3c2)c1OC | -4.98
CN(CC(=O)Nc1ccccc1[N+](=O)[O-])Cc1ccc(Br)cc1 | 1.93
O=C(Nc1ccc(N2CCN(C(=O)c3ccccc3)CC2)c(Cl)c1)c1ncn[nH]1 | -4.97

Please give the documented inhibition of CN(CC(=O)Nc1c(Cl)cccc1Cl)C(=O)c1ccncc1
-0.71

Please give the documented inhibition of COC(=O)CN1C(=O)[C@H]2[C@@H](/C=C/c3ccccc3)N3C(=O)CN(CC4CC4)C(=O)[C@@]3(Cc3ccccc3)[C@H]2C1=O
-1.86

Please give the documented inhibition of COc1ccc(Br)c(Cn2c(C)c(C(=O)NCc3cccs3)sc2=O)c1
2.25

Please give the documented inhibition of O=C(NC1CCC(O)CC1)c1ccccc1OCc1ccc(F)cc1 (stereo not given)
-4.15

Please give the documented inhibition of Cc1c(CCC(=O)N[C@@H](CC(C)C)C(=O)O)c(=O)oc2c(C)c3oc4c(c3cc12)CCCC4
0.56

Please give the documented inhibition of NC(=O)COC(=O)c1ccc2c(c1)C(=O)N(Cc1ccco1)C2=O
-0.09

====

inhibition listing for selected molecules.
- Measured Target: RNA-editing ligase 1, mitochondrial (Trypanosoma brucei brucei)
- Assay Method Text: TbREL1 RNA ligase inhibitors, primary screen, biochemical, FRET fluorescence (AID 1117264);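 note: 0% = plate median of test wells and 100% = NSC42067 control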
- Condition Description: TbREL1 RNA ligation, at 9.66 µM, active compounds read high
Out of some 89,000 compounds screened, about 440 (0.49%) were called active. What follows is part of a selection rich in actives, with near analogues and random picks from the rest.
Write the number in % without appending the unit.

COc1cc(/C=C/C(=O)n2cnc3ccccc32)cc(OC)c1OC | 12
CCOc1ccc(C(=O)CCC(=O)Nc2ccncc2)cc1 | -0.23
O=C(N/N=C/c1cccc([N+](=O)[O-])c1)c1ccncc1 | 7.99
COc1ccccc1-n1cnc2cc(NS(=O)(=O)c3ccccc3)ccc21 | 0.63
CCOc1ccc(-n2cnnn2)cc1S(=O)(=O)N1CCC(C)CC1C (stereo unspecified) | -0.48

# ---- query molecule ----
Please give the documented inhibition of COCCCn1c(SCC(=O)Nc2oc(C)c3c(C)n[nH]c(=O)c23)nc2sc3c(c2c1=O)CCC3
-6.64
